# System: PC-3
# ASSAY_TEXT: Cytotoxicity against human PC3 cells after 48 hrs
# Assay type: functional, cell-based
# TEST_SETTINGS: PC-3, 48 h
# IC50 per record follows
Respond numerically; units are µM and should not be typed.

1) C=C(C)[C@@H]1CC[C@]2(C(=O)O[C@@H]3O[C@H](CO)[C@@H](O)[C@H](O)[C@H]3O)CC[C@]3(C)[C@H](CC[C@@H]4[C@@]5(C)CC[C@H](O[C@@H]6O[C@@H](C)[C@H](O)[C@@H](O)[C@H]6O)C(C)(C)[C@@H]5CC[C@]43C)[C@@H]12: 11.2

[in] Form field: reported IC50 of `C=C(C)[C@@H]1CC[C@]2(C(=O)O[C@@H]3O[C@H](CO)[C@@H](O)[C@H](O)[C@H]3O)CC[C@]3(C)[C@H](CC[C@@H]4[C@@]5(C)CC[C@H](O[C@@H]6O[C@H](CO)[C@@H](O)[C@H](O)[C@H]6O)C(C)(C)[C@@H]5CC[C@]43C)[C@@H]12`
[out] 66

---

# Test system: MCF7
# ASSAY_TEXT: Cytotoxicity against human MCF7 cells after 48 hrs
# Assay type: functional, cell-based
# TEST_SETTINGS: MCF7, 48 h
# IC50 per record follows
Respond numerically; units are µM and should not be typed.

Please review the entries below; each comes with its answer.
1. C=C(C)[C@@H]1CC[C@]2(C(=O)O[C@@H]3O[C@H](CO)[C@@H](O)[C@H](O)[C@H]3O)CC[C@]3(C)[C@H](CC[C@@H]4[C@@]5(C)CC[C@H](O[C@@H]6O[C@H](CO)[C@@H](O)[C@H](O)[C@H]6O)C(C)(C)[C@@H]5CC[C@]43C)[C@@H]12: 20
2. C=C(C)[C@@H]1CC[C@]2(CO[C@@H]3O[C@H](CO)[C@@H](O)[C@H](O)[C@H]3O)CC[C@]3(C)[C@H](CC[C@@H]4[C@@]5(C)CC[C@H](O[C@@H]6O[C@H](CO)[C@@H](O)[C@H](O)[C@H]6O)C(C)(C)[C@@H]5CC[C@]43C)[C@@H]12: 14.5
3. C=C(C)[C@@H]1CC[C@]2(CO[C@@H]3O[C@@H](C)[C@H](O)[C@@H](O)[C@H]3O)CC[C@]3(C)[C@H](CC[C@@H]4[C@@]5(C)CC[C@H](O[C@@H]6O[C@@H](C)[C@H](O)[C@@H](O)[C@H]6O)C(C)(C)[C@@H]5CC[C@]43C)[C@@H]12: 1.7
4. C=C(C)[C@@H]1CC[C@]2(C(=O)O[C@@H]3O[C@H](CO)[C@@H](O)[C@H](O)[C@H]3O)CC[C@]3(C)[C@H](CC[C@@H]4[C@@]5(C)CC[C@H](O[C@@H]6OC[C@H](O)[C@H](O)[C@H]6O)C(C)(C)[C@@H]5CC[C@]43C)[C@@H]12: 23
5. C=C(C)[C@@H]1CC[C@]2(CO[C@@H]3O[C@H](CO)[C@@H](O)[C@H](O)[C@H]3O)CC[C@]3(C)[C@H](CC[C@@H]4[C@@]5(C)CC[C@H](O[C@@H]6O[C@@H](C)[C@H](O)[C@@H](O)[C@H]6O)C(C)(C)[C@@H]5CC[C@]43C)[C@@H]12: 9
6. C=C(C)[C@@H]1CC[C@]2(C(=O)O[C@@H]3O[C@H](CO)[C@@H](O)[C@H](O)[C@H]3O)CC[C@]3(C)[C@H](CC[C@@H]4[C@@]5(C)CC[C@H](O[C@@H]6O[C@@H](C)[C@H](O)[C@@H](O)[C@H]6O)C(C)(C)[C@@H]5CC[C@]43C)[C@@H]12: 5.7

// next item, IC50 requested
[in] Form field: reported IC50 of `C=C(C)[C@@H]1CC[C@]2(CO)CC[C@]3(C)[C@H](CC[C@@H]4[C@@]5(C)CC[C@H](O)C(C)(C)[C@@H]5CC[C@]43C)[C@@H]12`
[out] 23.3

---

# Test system: MCF7
# ASSAY_TEXT: Cytotoxicity against human MCF7 cells after 48 hrs
# Assay type: functional, cell-based
# TEST_SETTINGS: MCF7, 48 h
QUANTITY: pIC50
Field pIC50 (float): negative decimal logarithm of the concentration in molar.

1) COc1cc([C@@H]2c3cc4c(cc3[C@@H](O[C@@H]3O[C@@H]5CO[C@@H](C)O[C@H]5[C@H](O)[C@H]3O)[C@H]3COC(=O)[C@H]23)OCO4)cc(OC)c1O [ETOPOSIDE]: 6.15

// next item, pIC50 requested
[in] Form field: reported pIC50 of C=C(C)[C@@H]1CC[C@]2(C(=O)O)CC[C@]3(C)[C@H](CC[C@@H]4[C@@]5(C)CC[C@H](O)C(C)(C)[C@@H]5CC[C@]43C)[C@@H]12 [BETULINIC ACID]
[out] 4.39

---

# IC50 per record follows
# Tested on: PC-3
# ASSAY_TEXT: Cytotoxicity against human PC3 cells after 48 hrs
# Type: functional, cell-based
# TEST_SETTINGS: PC-3, 48 h

Please review the entries below; each comes with its answer.
1. C=C(C)[C@@H]1CC[C@]2(CO[C@@H]3O[C@H](CO)[C@@H](O)[C@H](O)[C@H]3O)CC[C@]3(C)[C@H](CC[C@@H]4[C@@]5(C)CC[C@H](O)C(C)(C)[C@@H]5CC[C@]43C)[C@@H]12: > 100 µM
2. C=C(C)[C@@H]1CC[C@]2(C(=O)O[C@@H]3O[C@H](CO)[C@@H](O)[C@H](O)[C@H]3O)CC[C@]3(C)[C@H](CC[C@@H]4[C@@]5(C)CC[C@H](O)C(C)(C)[C@@H]5CC[C@]43C)[C@@H]12: > 100 µM

[in] Give the reported IC50 for `C=C(C)[C@@H]1CC[C@]2(CO[C@@H]3O[C@H](CO)[C@@H](O)[C@H](O)[C@H]3O)CC[C@]3(C)[C@H](CC[C@@H]4[C@@]5(C)CC[C@H](O[C@@H]6O[C@H](CO)[C@@H](O)[C@H](O)[C@H]6O)C(C)(C)[C@@H]5CC[C@]43C)[C@@H]12` (system: PC-3).
[out] > 100 µM

Data provenance is ChEMBL document CHEMBL1151813.
